test: viability loss with induced miR-34 in A549 – imaging, A549 dox-inducible miR-34, nuclei and caspase counts, primary screen (AID 1347080); settings: A549 miR-34 inducible, Hoechst nuclei count, 48 h; hits give low values; cell number ratio, induced over uninduced
Response field label: string, one of condition met (fold change strictly below 1) or condition not met.

Consider the following illustrative entries.
>>> class_label("O=C1OC[C@@H](Cc2cccc(O)c2)[C@@H]1Cc1cccc(O)c1")
"condition met"
>>> class_label("CC(C)OC(=O)CCC/C=C\\C[C@@H]1[C@@H](/C=C/[C@@H](O)CCc2ccccc2)[C@H](O)C[C@@H]1O")
"condition met"
>>> class_label("O=C(NOCC(O)CO)c1ccc(F)c(F)c1Nc1ccc(I)cc1F (configuration not stated)")
"condition not met"
>>> class_label("COc1cccc(Nc2c(C(N)=O)cnc3c(C)cc(S(=O)(=O)c4cccc(C(=O)N(C)C)c4)cc23)c1")
"condition met"
>>> class_label("O=C(O)CCC/C=C/C[C@@H]1[C@@H](CC[C@@H](O)CCc2ccccc2)[C@H](O)C[C@@H]1O")
"condition met"

Input line: # TODO verify fold change < 1 strictly for this compound: COCCOc1ccc2c(c1)ncn2-c1ccc2cccc(N3CCC(N)CC3)c2n1
Output line: condition not met

Input line: # TODO verify fold change < 1 strictly for this compound: CCCCCOc1ccccc1C(O)CC#CCCCC(=O)OC (configuration not stated)
Output line: condition met

Input line: # TODO verify fold change < 1 strictly for this compound: NC(=O)N1c2ccccc2CC(O)c2ccccc21 (configuration not stated)
Output line: condition met

Input line: # TODO verify fold change < 1 strictly for this compound: C[C@@]1(c2cc(-c3cncnc3)c(F)cc2F)CCSC(N)=N1
Output line: condition met

Input line: # TODO verify fold change < 1 strictly for this compound: CCCCCCCNS(=O)(=O)c1cccc2c(Cl)cccc12
Output line: condition met

Input line: # TODO verify fold change < 1 strictly for this compound: CCCCC[C@H](O)/C=C/[C@H]1[C@H](O)CC(=O)[C@@H]1CCCCCCCCC(=O)O
Output line: condition met

* * *

assay: drug combination growth inhibition, ovarian cancer – cell-based, oncology-focused library, rucaparib conditional, profiling panel (AID 1508598); conditions: patient-derived ovarian cancer cells, CellTiter-Glo viability, 144 h; at 0.00488 µM; OCI-C5x cells; with rucaparib 10 µM; 100% = cells with rucaparib alone
Calls of active or inactive are those of the source.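 How the source made its calls: active means normalized viability below 100% at a tested concentration; inactive means the rest.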
# output must be one of 1.0 for active, 0.0 for inactive

>>> class_label("CCC[C@H](Nc1nc(-c2ccc(NC(=O)NCC)c(OC)c2)ncc1C)c1cccnc1")
0.0
>>> class_label("C=C(c1ccc(C(=O)O)cc1)c1cc2c(cc1C)C(C)(C)CCC2(C)C")
0.0
>>> class_label("C/C(=C\\C(=O)Nc1ccccc1C(=O)O)c1ccc2ccccc2c1")
1.0
>>> class_label("COc1nc(C)cnc1NS(=O)(=O)c1cccnc1-c1ccc(-c2nnco2)cc1")
1.0

Input line: What call does the record list for O=C(NCCCNc1nc(Nc2cccc(NC(=O)N3CCCC3)c2)ncc1I)c1cccs1 ?
Output line: 0.0

* * *

assay: viability loss in pontine glioma line – cell-based, SU-DIPG-XIII, MIPE4.0, CellTiter-Glo, qHTS, dose response (AID 1347061); conditions: CellTiter-Glo ATP luminescence;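 also: cells exposed to compound for 48 hours before readout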
Records with an inconclusive call do not appear. Activity calls are given as the source filed them. No cut-off is given here; in the data, nearly all actives have AC50 up to about 37 µM.
# output must be one of TRUE for active, FALSE for inactive

Consider the following illustrative entries.
>>> class_label("CCn1cc(-c2ccnc3[nH]c(-c4cccc(CN(C)C)c4)cc23)c(-c2ccc(NC(=O)N(C)C)cc2)n1")
"TRUE"
>>> class_label("CCOC(=O)N1CCN(/[N+]([O-])=N/Oc2ccc([N+](=O)[O-])cc2C#N)CC1")
"FALSE"

Input line: What call does the record list for O=S(=O)(N=Cc1c(O)ccc2ccccc12)c1cccs1 ?
Output line: FALSE

Input line: What call does the record list for CC(C)(O)CCc1ccc(OCc2cc(-c3cccc(OC(F)F)c3)c3ncccc3c2)cc1 ?
Output line: FALSE

Input line: What call does the record list for C[C@H](NC(=O)Cc1cc(F)cc(F)c1)C(=O)N[C@@H]1C(=O)N(C)c2ccccc2-c2ccccc21 ?
Output line: TRUE

* * *

assay: viability loss in pontine glioma line – cell-based, SU-DIPG-XIII, MIPE5.0, CellTiter-Glo, qHTS, dose response (AID 1347064); details: CellTiter-Glo ATP luminescence;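 as to AC50: cells exposed to compound for 48 hours before the viability read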
Results filed as inconclusive are left out. The source made the active and inactive calls. The limit is not given here; nearly all actives have AC50 up to about 23 µM.
# output must be one of active, inactive

Input line: What call does the record list for COc1cc(N2CCC(O)CC2)ccc1Nc1cc(Nc2ccccc2S(=O)(=O)C(C)C)c2cc[nH]c2n1 ?
Output line: active

Input line: What call does the record list for CC[C@H]1OC(=O)[C@H](C)C(=O)[C@H](C)[C@@H](O[C@H]2O[C@H](C)C[C@H](N(C)C)[C@H]2O)[C@](C)(OC)C[C@@H](C)C(=O)[C@H](C)[C@H]2N(CCCCn3cnc(-c4cccnc4)c3)C(=O)O[C@]12C ?
Output line: inactive

Input line: What call does the record list for C[C@@H](Oc1cc(-c2cnn(C3CCNCC3)c2)cnc1N)c1c(Cl)ccc(F)c1Cl ?
Output line: active

Input line: What call does the record list for O=C(NC[C@H](O)CN1CCc2ccccc2C1)c1ccnc(NC2CCC2)c1 ?
Output line: inactive

Input line: What call does the record list for CCC(C)CNCC(=O)N1CCc2sccc2C1c1cccc(C)n1 (stereo not drawn) ?
Output line: inactive

Input line: What call does the record list for COc1c(Nc2ncc(Cl)c(N[C@H]3[C@H](C(N)=O)[C@@H]4C=C[C@@H]3C4)n2)ccc2c1CCC(N1CCOCC1)CC2 (stereo partly drawn) ?
Output line: active

Input line: What call does the record list for O=C(O)CCCCN(CCc1ccccc1OCc1ccc(CCc2ccccc2)cc1)Cc1ccc(C(=O)O)cc1 ?
Output line: inactive

Input line: What call does the record list for CC#CCn1c(N2CCC[C@@H](N)C2)nc2c1c(=O)n(Cc1nc(C)c3ccccc3n1)c(=O)n2C ?
Output line: inactive

* * *

Consider the following compounds and their measured fold change readings.
assay: viability loss with induced miR-34 in A549 – imaging, A549 dox-inducible miR-34, nuclei and caspase counts, primary screen (AID 1347080); conditions: A549 miR-34 inducible, Hoechst nuclei count, 48 h; hits give low values; cell number ratio, induced over uninduced
API note: the answer field is a bare number with no unit suffix.

Previously resolved entries follow.
>>> observed_value("O=C1C[C@@H]2[C@@H](CC[C@@H](O)CCc3ccccc3)[C@H](O)C[C@@H]2O1")
1.01
>>> observed_value("CCCCC/C=C\\C/C=C\\CCCCCCCC(=O)O[C@H](COC(=O)CCCCCCCCCCCCCCC)COP(=O)(O)OCCN")
0.789
>>> observed_value("CCNC(=O)CCC/C=C\\C[C@@H]1[C@@H](CC[C@@H](O)CCc2ccccc2)[C@H](O)C[C@@H]1O")
0.901
>>> observed_value("O=C(O)CCC/C=C\\C[C@@H]1[C@@H](/C=C/[C@@H](O)COc2ccccc2)[C@H](O)C[C@@H]1O")
0.956
>>> observed_value("c1cc(-c2cnn3cc(-c4ccc(N5CCNCC5)cc4)cnc23)c2cccnc2c1")
1.02

Noted for COc1ccc(C2=N[C@@H](c3ccc(Cl)cc3)[C@@H](c3ccc(Cl)cc3)N2C(=O)N2CCNC(=O)C2)c(OC(C)C)c1 : its fold change reads 1.1

Noted for CCCCC[C@H](O)/C=C/[C@H]1[C@H](O)CC(=O)[C@@H]1C/C=C\CCCC(=O)OC : its fold change reads 0.938

Noted for Cc1c(CC(C)(C)C(=O)O)n(Cc2ccc(Cl)cc2)c2ccc(F)cc12 : its fold change reads 0.952

Noted for Nc1[nH]nc2nc3ccccc3nc12 : its fold change reads 0.889

Noted for CN1CCN(c2nc(C3=C(c4c[nH]c5ccccc45)C(=O)NC3=O)c3ccccc3n2)CC1 : its fold change reads 0.982

Noted for CCCCCCCCCCCC(=O)CC(=O)N[C@H]1CCOC1=O : its fold change reads 1.1

Noted for CC1(C)Cc2c(-c3ccccc3)c(-c3ccc(Cl)cc3)c(CC(=O)O)n2C1 : its fold change reads 0.932

Noted for CC(C)(C)OC(=O)Nc1ccc(-c2cc(C(=O)NCCCCCCC(=O)NO)no2)cc1 : its fold change reads 1.08

Noted for O/N=C/c1ccc(-c2ccc(O)c(F)c2)c(Cl)c1O : its fold change reads 0.891

* * *

experiment: viability loss in pontine glioma line – cell-based, SU-DIPG-XVII, MIPE5.0, CellTiter-Glo, qHTS, dose response (AID 1347060); conditions: CellTiter-Glo ATP luminescence;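 as to AC50: cells exposed to compound for 48 hours before viability readout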
Results filed as inconclusive are left out. Activity calls are given as the source filed them. No cut-off is given here; in the data, nearly all actives have AC50 up to about 26 µM.
Readout: AC50

Previously resolved entries follow.
>>> observed_value("Cc1cccc(-c2[nH]ncc2-c2ccc3ncccc3n2)n1")
"inactive"
>>> observed_value("CCN(CC)CCCCNc1ncc2cc(-c3cc(OC)cc(OC)c3)c(NC(=O)NC(C)(C)C)nc2n1")
"468 nM (active)"
>>> observed_value("CO[C@@H]1COCC[C@@H]1N[C@@H]1CC[C@@](C(=O)N2CCc3ncc(C(F)(F)F)cc3C2)(C(C)C)C1")
"inactive"
>>> observed_value("CCN1CCN(c2ccc(Nc3cc(N(C)C(=O)Nc4c(Cl)c(OC)cc(OC)c4Cl)ncn3)cc2)CC1")
"235 nM (active)"

Moving on to the next compound.
Noted for CC[C@H](CO)Nc1nc(NCc2ccccc2)c2ncn(C(C)C)c2n1 : its AC50 reads 20900 nM (active)
